tested on: goosegrass (Eleusine indica); experiment: Test D pre-/postemergence plant response; type: in vivo; conditions: Postemergence, 125 g ai/ha; scale 0 to 100 (0 no effect, 100 complete control)
attribute-measured: Plant response rating, Goosegrass
Reply: number alone, nothing else.

// known answers, use as guide
| molecule | Plant response rating, Goosegrass |
| --- | --- |
| CCCn1c(-c2ccccc2)ncc(C(=O)C2=C(O)C3CCC(C3)C2=O)c1=O (stereo not shown) [Compound 226] | 70 |
| Cc1ccc(Cl)cc1-n1c(-c2ccccc2)ncc(C(=O)C2=C(O)CCCC2=O)c1=O [Compound 52] | 80 |
| Cc1c(F)cccc1-n1c(-c2ccccc2)ncc(C(=O)C2=C(O)CCCC2=O)c1=O [Compound 47] | 65 |

Alright, here's another molecule for you.
Measured Plant response rating, Goosegrass of Cc1ccc(F)c(-n2c(-c3ccccc3)ncc(C(=O)C3=C(O)CCCC3=O)c2=O)c1 [Compound 51] : 65

// provenance: patent US8952024B2
